# target: Presenilin-1-comprised γ-secretase (Homo sapiens, UniProt P49768)
# Construct: expressed in transfected cells; host or cells: mouse fibroblasts derived from PS1/PS2 double knockout cells, pCF vector
# method-notes: Aβ1-x ELISA in Presenilin-1 transfected PS1/PS2 double knockout mouse fibroblasts
# Type: cell-based
# applied-conditions: column A; Aβ1-x, Presenilin-1 transfected cells, overnight; read-out: PS1 EC50 (nM) A
property-name: EC50 (nM)
Numbers only, in nM.

>>> df
                                   compound                                    target  quantitative_result
0  CSc1ncccc1-c1nc(CN([C@@H]2CCCCNC2=O)S(=O)(=O)c2ccc(Cl)cc2)no1  Presenilin-1-comprised γ-secretase (Homo sapiens, UniProt P49768)                  212
1  Cn1nnc2cc(CN([C@@H]3CCCCNC3=O)S(=O)(=O)c3ccc(Cl)cc3)ccc21  Presenilin-1-comprised γ-secretase (Homo sapiens, UniProt P49768)                   40
2  COc1ccc(CN(C2CCCCC2C)S(=O)(=O)c2ccc(Cl)cc2)cc1OC (stereo not shown)  Presenilin-1-comprised γ-secretase (Homo sapiens, UniProt P49768)                   49

Here is another compound to look at.
Input line: Fill in the blank: the reported EC50 of Cn1nnc2cc(CN([C@@H]3CCCCNC3=O)S(=O)(=O)c3ccc(Cl)nc3)ccc21 is ____.
Output line: 84
